src = patent US20110053897A1

Molecular target: Syk kinase (Homo sapiens, UniProt P43405)
Construct: purchased
Experiment: Syk kinase inhibition, Caliper LabChip off-chip mobility-shift kinase assay
Format: biochemical
Details: Caliper LabChip assay; read-out: Syk Enzyme IC50
Endpoint Label: pIC50
// pIC50 here means minus log10 of the molar concentration (mol/L)

Quick check: pIC50 of "CC1(Cn2ccc3cc(-c4cnc(N)nc4)nc(NC4(C)CCC4)c3c2=O)COC1" ? 7.24

Quick check: pIC50 of CCn1ccc2cc(Nc3cc(C)ccn3)nc(NC3CC=C(C)CC3)c2c1=O (centres unmarked) ? 6.12

Quick check: pIC50 of "CN(C)CCNC(=O)c1ccnc(Nc2cc3ccn(CCO)c(=O)c3c(NC(C)(C)C)n2)c1" ? 6.23

Quick check: pIC50 of CCn1ccc2cc(Nc3cnccn3)nc(Nc3ccc(C(=O)N4CCC(O)C4)cc3)c2c1=O (centres unmarked) ? 6.58

Quick check: pIC50 of CCn1ccc2cc(Nc3cnccn3)nc(NCC(O)C(F)(F)F)c2c1=O (centres unmarked) ? 6.84

Quick check: pIC50 of "CC(C)(C)Nc1nc(Nc2cnccn2)cc2cc[nH]c(=O)c12" ? 7.92

Quick check: pIC50 of "NC(=O)Cn1ccc2cc(Nc3cnccn3)nc(NC3CCC3)c2c1=O" ? 7.92

Quick check: pIC50 of "CC(C)(C)Nc1nc(Nc2cc(CN3CCOCC3)ccn2)cc2ccn(CCO)c(=O)c12" ? 7.25

* * *

Target: Syk kinase (Homo sapiens)
Construct: purchased
Assay: Syk kinase inhibition, Caliper LabChip off-chip mobility-shift kinase assay
Type: biochemical
Conditions: Caliper LabChip assay; read-out: Syk Enzyme IC50
Exercise: state measured pIC50 for each of the molecules provided.
// pIC50 here means minus log10 of the molar concentration (mol/L)

Quick check: pIC50 of CC(CO)c1ccnc(Nc2cc3ccn(CCO)c(=O)c3c(NC(C)(C)C)n2)c1 (stereo not shown) ? 8.70

Quick check: pIC50 of "Cc1ccnc(Nc2cc3ccn(C(C)C)c(=O)c3c(N[C@H]3CC[C@@H](O)C3)n2)c1" ? 7.70

Quick check: pIC50 of "Cc1c2ccc(Nc3nc(Nc4cnccn4)cc4ccn(CCO)c(=O)c34)cc2nn1C" ? 6.77

Quick check: pIC50 of "O=c1c2c(N[C@H]3CC[C@H](O)CC3)nc(Nc3cnccn3)cc2ccn1CCO" ? 7.82

Quick check: pIC50 of CC(O)c1ccnc(Nc2cc3ccn(CC(N)=O)c(=O)c3c(NC3(C)CCC3)n2)c1 (stereo not shown) ? 7.74

Quick check: pIC50 of "CC(C)n1ccc2cc(Nc3c[n+]([O-])ccn3)nc(N[C@H]3CC[C@@H](CO)C3)c2c1=O" ? 7.89

Quick check: pIC50 of "CCn1ccc2cc(Nc3cc(C)ccn3)nc(Nc3ccc(C(=O)N4CCC(O)CC4)cc3)c2c1=O" ? 6.88

* * *

Exercise: state measured log10 of IC50 for each of the compounds provided.
Target: Syk kinase (Homo sapiens, UniProt P43405)
Construct: purchased
Assay: Syk kinase inhibition, Caliper LabChip off-chip mobility-shift kinase assay
Type: biochemical
Details: read-out: Syk Enzyme IC50
Quick note: numbers are log10 of IC50, with nM as the unit.

Quick check: log10 of IC50 of "CCOCCOc1ccc(Nc2nc(Nc3cnccn3)cc3ccn(C)c(=O)c23)cc1" ? 3.31

Quick check: log10 of IC50 of "CCn1ccc2cc(Nc3cc(C)ccn3)nc(NC[C@H]3CC[C@H](O)C3)c2c1=O" ? 2.08

Quick check: log10 of IC50 of COc1cncc(-c2cc3cc[nH]c(=O)c3c(Nc3ccc(C4CCN(CC(O)CO)CC4)cc3)n2)n1 (stereo not shown) ? 0.85

Quick check: log10 of IC50 of "[2H]C([2H])([2H])n1ccc2cc(Nc3cnccn3)nc(N[C@H]3CC[C@@H](O)CC3)c2c1=O" ? 1.53

Quick check: log10 of IC50 of "Cc1cc(C)nc(Nc2cc3cc[nH]c(=O)c3c(Nc3ccc(C4CCN(C5CC5)CC4)c(C)c3)n2)c1" ? 2.15

Quick check: log10 of IC50 of "CCOCCc1cc2cc[nH]c(=O)c2c(Nc2ccc(N3CCO[C@H](C)C3)c(C)c2)n1" ? 2.39

Quick check: log10 of IC50 of "Cn1ccc2cc(Nc3cc(Cl)ccn3)nc(N[C@H]3CC[C@@H](O)CC3)c2c1=O" ? 1.56
